- TARGET OR SYSTEM: Cytochrome P450 1A2 (Homo sapiens)
- MEASUREMENT NOTES: Cytochrome P450 Family 1 Subfamily A Member 2 (CYP1A2) small molecule antagonists: luciferase reporter qHTS assay (AID 1671199); also: nearly all actives have a fitted effect of over 50% in size; also: potency is read from the fitted curve at half-maximal effect
- STATED CONDITIONS: P450-Glo CYP1A2 enzyme, luciferin luminescence, 1 h; series mostly up to 115 µM
Records with an inconclusive call do not appear. Activity calls are given as the source filed them. Calls follow the shape of the dose curve; as a rule, active = well fitted inhibition curve with a large enough effect in the repeat runs; inconclusive = weak or mixed curves; inactive = no such curve, though single readings can be large or run the other way.
MEASURED ENDPOINT: Potency

[F][Sn]([c]1ccccc1)([c]1ccccc1)[c]1ccccc1 | inactive
CC(Cl)CCl (centres undefined) | inactive
O=[N+]([O-])c1ccccc1-c1ccccc1 | 1.59 µM (active)
CCN(CC)CCc1c[nH]c2ccccc12 | 52.6 µM (active)
Cc1cc(C2CC2)nc(Nc2ccccc2)n1 | 2.52 µM (active)
COP(=S)(NC(C)C)Oc1ccc(C)cc1[N+](=O)[O-] (centres undefined) | 11.2 µM (active)

*Q* Query: Potency; subject: `CCC[CH2][Sn]([CH2]CCC)([O]C(C)=O)[O]C(C)=O`
*A* inactive

*Q* GET /values?readout=Potency&item= `Clc1ccc(C2(Cn3cncn3)OCCO2)c(Cl)c1`
*A* 28.3 µM (active)

*Q* State the recorded Potency for this entry: `Cc1c([N+](=O)[O-])cc2c(c1[N+](=O)[O-])C(C)(C)CC2(C)C`
*A* 8.94 µM (active)

----------
- MEASUREMENT NOTES: qHTS assay for identifying genotoxic compounds that show differential cytotoxicity against isogenic chicken DT40 cell lines with known DNA damage response pathways - wild type cell line (AID 743012); also: nearly all actives have a fitted effect of over 60% in size
- STATED CONDITIONS: DT40 wild type chicken cells viability, CellTiter-Glo, 40 h; series mostly up to 68.4 µM
Inconclusive results are not listed. Calls of active or inactive are those of the source. Calls follow the shape of the dose curve; as a rule, active = well fitted cell-killing curve with a large enough effect in the repeat runs; inconclusive = weak or mixed curves, or effect the other way; inactive = no such curve, though single readings can be large or run the other way.
// one of t (active), f (inactive), no free text

Here are 8 compounds together with their reported answers.
COC(=O)/C=C(\C)OP(=O)(OC)OC | f
[O-][Cl+3]([O-])([O-])O | f
CC1(C)C(C=C(Cl)Cl)C1C(=O)OC(C#N)c1ccc(F)c(Oc2ccccc2)c1 (stereo not given) | f
C1=CCC=C1 | f
CCOP(=S)(NC(C)C)Oc1ccccc1C(=O)OC(C)C (stereo not given) | t
N#CCCl | f
Oc1ccc(Cl)c(Cl)c1 | f
COCCC#N | f

*Q* Hey, what did the test say about `ClC(Cl)C(Cl)(Cl)Cl` ?
*A* f

*Q* Kindly provide the recorded test outcome for the following compound: `c1csc(-c2ccc(-c3cccs3)s2)c1`
*A* t

*Q* // return assay outcome for `O=[N+]([O-])[O-].[Tl+]`
*A* t

*Q* Which outcome did this test record for the compound `CCOC(=O)CCN(SN(C)C(=O)Oc1cccc2c1OC(C)(C)C2)C(C)C` ?
*A* t

*Q* Hi, do you know how `Nc1ccc(N=Nc2ccccc2)cc1` came out in this test?
*A* t

*Q* Fill in: this test's call for `O=C(NC(=O)c1ccccc1Cl)Nc1ccc(OC(F)(F)F)cc1` is ___
*A* f

*Q* Tell me the recorded outcome of this test for `COC(=O)c1cc(Oc2ccc(Cl)cc2Cl)ccc1[N+](=O)[O-]` .
*A* t

*Q* Tell me the assay call for `[Cl-].[Cl-].[Cl-].[Yb+3]` please.
*A* f

*Q* Hi team, can someone confirm the assay call for `CC(=O)[O-].CC(=O)[O-].[Co+2]` ?
*A* f

*Q* Name the outcome recorded for CN1[C@@H]2CC[C@H]1CC(O)C2 (stereo not given in full) in the assay.
*A* f

*Q* Which outcome was entered for the compound `O.O.O.O.O.O.O.O=S(=O)([O-])[O-].[Co+2]` in this test?
*A* f

*Q* I'd appreciate the recorded outcome for `CCC[CH2][Sn]([CH2]CCC)([CH2]CCC)[CH2]CCC` from this test.
*A* t

----------
- MEASUREMENT NOTES: qHTS assay for identifying genotoxic compounds that show differential cytotoxicity against isogenic chicken DT40 cell lines with known DNA damage response pathways - Rev3 mutant cell line (AID 743014); also: nearly all actives have a fitted effect of over 55% in size; also: potency is read from the fitted curve at half-maximal effect
- STATED CONDITIONS: chicken DT40 Rev3-/- viability, CellTiter-Glo, 40 h; series mostly up to 68.4 µM
Records with an inconclusive call do not appear. Calls of active or inactive are those of the source. The call rests on the fitted dose curve; in most records, active means well fitted cell-killing curve with a large enough effect in the repeat runs; inconclusive means weak or mixed curves, or effect the other way; inactive means no such curve, though single readings can be large or run the other way.
MEASURED ENDPOINT: Potency

Sample records with Potency:
O=C(O)[C@H](O)[C@@H](O)C(=O)O | inactive
CCN(CC)Cc1nccn1-c1ccc([N+](=O)[O-])cc1C(=O)c1ccccc1Cl | 29.8 µM (active)
C[C@]12C/C(=C/O)C(=O)C[C@@H]1CC[C@@H]1[C@@H]2CC[C@@]2(C)[C@H]1CC[C@]2(C)O | 49 µM (active)
NC(=O)C(Cl)Cl | inactive

*Q* Which Potency reading was recorded for the molecule CCn1cc[n+](C)c1 (tested in a mixture with another compound) ?
*A* inactive

*Q* For `O=[N+]([O-])c1ccc(CCl)cc1` , what is its reported Potency?
*A* inactive

----------
- MEASUREMENT NOTES: qHTS assay for small molecule agonists of the p53 signaling pathway - cell viability (AID 651633); also: nearly all actives have a fitted effect of over 30% in size; also: potency is read from the fitted curve at half-maximal effect
- STATED CONDITIONS: p53RE-bla HCT-116 viability, ATP luminescence, 16 h; series mostly up to 83.3 µM
Records with an inconclusive call do not appear. Active and inactive are the calls of the source. The call rests on the fitted dose curve.
MEASURED ENDPOINT: Potency

Brc1cccc(-c2ccccc2)c1 | inactive
[F][Sn]([c]1ccccc1)([c]1ccccc1)[c]1ccccc1 | 3.06 µM (active)
CC(Cl)CCl (stereo not drawn) | inactive

----------
- TARGET OR SYSTEM: Luciferin 4-monooxygenase (Photinus pyralis) (UniProt P08659)
- Sequence (P08659 whole entry, looked up): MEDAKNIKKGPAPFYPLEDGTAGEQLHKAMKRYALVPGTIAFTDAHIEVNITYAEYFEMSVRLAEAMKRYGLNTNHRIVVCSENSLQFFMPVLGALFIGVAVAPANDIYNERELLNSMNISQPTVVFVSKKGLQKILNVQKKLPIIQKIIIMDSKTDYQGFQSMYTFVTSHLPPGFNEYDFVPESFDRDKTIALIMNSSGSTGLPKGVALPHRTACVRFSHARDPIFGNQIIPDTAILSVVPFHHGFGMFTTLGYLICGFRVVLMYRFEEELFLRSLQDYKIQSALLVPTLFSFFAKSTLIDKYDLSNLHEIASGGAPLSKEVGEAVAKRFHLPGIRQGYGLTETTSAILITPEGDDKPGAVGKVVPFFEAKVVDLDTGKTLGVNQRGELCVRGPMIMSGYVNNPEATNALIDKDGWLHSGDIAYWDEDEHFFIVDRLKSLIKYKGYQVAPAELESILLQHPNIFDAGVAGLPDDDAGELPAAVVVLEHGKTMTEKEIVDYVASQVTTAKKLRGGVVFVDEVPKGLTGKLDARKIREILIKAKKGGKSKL
- MEASUREMENT NOTES: qHTS assay to identify small molecule inhibitors of firefly luciferase (AID 1224835); also: nearly all actives have a fitted effect of over 25% in size
- STATED CONDITIONS: purified P. pyralis luciferase, luminescence inhibition; series mostly up to 115 µM
Records with an inconclusive call do not appear. The source made the active and inactive calls. The call rests on the fitted dose curve; in most records, active means well fitted inhibition curve with a large enough effect in the repeat runs; inconclusive means weak or mixed curves; inactive means flat fitted curve, though single readings scatter.
The reply should name one outcome from 1 (active), -1 (inactive)

C=CC(=O)[O][Sn]([CH2]CCC)([CH2]CCC)[CH2]CCC | 1

*Q* What was the test verdict on `CCN(CC)C(=S)S` ?
*A* -1

*Q* What was the test verdict on `CC#C[C@]1(O)CC[C@H]2[C@@H]3C[C@H](C)C4=CC(=O)CC[C@]4(C)[C@H]3CC[C@@]21C` ?
*A* -1

*Q* Called result for `C#CCO`
*A* -1

*Q* Hello, I am checking results. What call was entered for `CNC(C)(C)Cc1ccccc1` ?
*A* -1

*Q* Record lookup: outcome of this test for `C=CCBr` ?
*A* -1

----------
- MEASUREMENT NOTES: qHTS assay to identify small molecule antagonists of the glucocorticoid receptor (GR) signaling pathway - cell viability counter screen (AID 720693); also: nearly all actives have a fitted effect of over 55% in size
- STATED CONDITIONS: GR-bla HeLa viability, CellTiter-Glo luminescence, 18 h, with 5 nM dexamethasone present; series mostly up to 58.5 µM
Results filed as inconclusive are left out. Activity calls are given as the source filed them. The call rests on the fitted dose curve; in most records, active means well fitted cell-killing curve with a large enough effect in the repeat runs; inconclusive means weak or mixed curves, or effect the other way; inactive means no such curve, though single readings can be large or run the other way.
Lab note: assign the record to one of class 1 for active, class 0 for inactive

Reference set (8 entries):
O=C1C2(Cl)C3(Cl)C4(Cl)C(Cl)(Cl)C5(Cl)C3(Cl)C1(Cl)C5(Cl)C24Cl (centres undefined) | class 1
ClC1(Cl)C2(Cl)C3(Cl)C4(Cl)C(Cl)(Cl)C5(Cl)C3(Cl)C1(Cl)C5(Cl)C24Cl (centres undefined) | class 0
CC(C)(C)c1ccc(OP(=O)(Oc2ccccc2)Oc2ccccc2)cc1 | class 0
[Cl-].[Cl-].[Sn+2] | class 0
CC(C)C(Nc1ccc(C(F)(F)F)cc1Cl)C(=O)OC(C#N)c1cccc(Oc2ccccc2)c1 (centres undefined) | class 0
O=[N+]([O-])c1ccc(Cl)c(Cl)c1Cl | class 0
[F][Sn]([c]1ccccc1)([c]1ccccc1)[c]1ccccc1 | class 1
Nc1c(Cl)c(Cl)c(Cl)c(Cl)c1Cl | class 0

*Q* Given `O=c1[nH]c(Cl)c(Cl)cc1Cl` , state the outcome it received in this test.
*A* class 0

*Q* Recorded call for `COc1cnc(OC)n2nc(NS(=O)(=O)c3c(OCC(F)F)cccc3C(F)(F)F)nc12` ?
*A* class 0

*Q* Entry `CCCCc1ccccc1` : call = ?
*A* class 0

*Q* Hey, what did the test say about `Clc1ccc(C(Cl)(Cl)Cl)cc1Cl` ?
*A* class 0

*Q* Call for entry `O=C(NC(=O)c1ccccc1Cl)Nc1ccc(OC(F)(F)F)cc1` :
*A* class 0

*Q* # outcome recorded in this test, key = `CCCN`
*A* class 0

*Q* What is the recorded call for this molecule in the test? `Oc1ccc2[nH]cc(CCCCN3CC=C(c4ccccc4)CC3)c2c1`
*A* class 0

*Q* Assay outcome for `COC(=O)/C=C(\C)OP(=O)(OC)OC` : what was it?
*A* class 0

*Q* What outcome does the record of this test show for `Fc1ccc(C(OCCN2CCN(CCCc3ccccc3)CC2)c2ccc(F)cc2)cc1` ?
*A* class 1

*Q* Test call for this molecule, please: `O=c1c2ccccc2c(=O)c2c1cc(Cl)c1[nH]c3c([nH]c12)c(Cl)cc1c(=O)c2ccccc2c(=O)c13`
*A* class 0

*Q* // param item: `CCOP(=O)(Sc1ccccc1)Sc1ccccc1` ; yields the recorded call
*A* class 0
